- TEST_SYSTEM: Endothelial PAS domain-containing protein 1 (Homo sapiens)
- ASSAY_METHOD_TEXT: HIF-2a and HIF-1a reporter inhibition panel, dose response, selectivity assay for HIF-2a inhibitor project, cell-based, luminescence (AID 651581)
- CONDITION: HIF-2a PANC, mean of runs
Active and inactive are the calls of the source. No rule for the calls is given here.
Select the correct class. Options are active, inactive and nothing else.

Ask | Look up the recorded call for Cc1ccc(Oc2ccc(OCC(=O)Nc3ccncc3)cc2)cc1 in this test.
Reply | active

Ask | Repeat for the following compound: CCOc1ccc(OCc2cccc(C(=O)N/N=C/c3cccnc3)c2)cc1
Reply | inactive

Ask | Let us now turn to Cn1c(/C=C/c2ccc(Cl)cc2)c([N+](=O)[O-])c(=O)n(C)c1=O
Reply | active

Ask | Cool, now O=C(Nc1ccc(NC(=S)NC(=O)c2ccco2)cc1)c1ccc(Br)cc1
Reply | inactive

Ask | Try O=C(Nc1ccc(NC(=O)c2ccco2)cc1)c1ccc2c(c1)OCCO2 next.
Reply | active

Ask | Same thing, different compound: CCOC(=O)CNC(=O)CSc1nnc(NC(=O)c2ccc(C)cc2)s1
Reply | inactive

###

- TEST_SYSTEM: Endothelial PAS domain-containing protein 1 (Homo sapiens)
- ASSAY_METHOD_TEXT: HIF-2a and HIF-1a reporter inhibition panel, dose response, selectivity assay for HIF-2a inhibitor project, cell-based, luminescence (AID 651581)
- CONDITION: HIF-2a PANC, run 1
QUANTITY_KIND: log10 of IC50 (log10 of the value in µM)
# values: log10(IC50), units µM

Ask | Which log10 of IC50 reading was recorded for the molecule CS(=O)(=O)c1ccc(-c2cn3cc(C(=O)O)ccc3n2)cc1 ?
Reply | 1.94

Ask | Next: Cc1ccoc1C(=O)Nc1ccc(CC(=O)O)cc1
Reply | -0.05

Ask | Would you kindly repeat that for COc1cc(N2C(=O)C=CC2=O)c(OC)cc1Cl ?
Reply | 1.59

Ask | Next: CCOc1ccc(C(=O)Nc2cccc(C(=O)O)c2C)cc1Cl
Reply | 1.40

Ask | What do you get for COc1ccc(/C=N\n2nnc3ccccc32)cc1 ?
Reply | 0.87

###

- TEST_SYSTEM: Hypoxia-inducible factor 1-alpha (Homo sapiens)
- ASSAY_METHOD_TEXT: HIF-2a and HIF-1a reporter inhibition panel, dose response, selectivity assay for HIF-2a inhibitor project, cell-based, luminescence (AID 651581)
- CONDITION: HIF-1a, run 2
QUANTITY_KIND: IC50 (µM)
Note: unit µM is implicit; provide only the numeric part.

Ask | # input molecule: Cc1nnnn1/C(=C\c1ccccc1)C(=O)OCC(=O)Nc1cccc(S(=O)(=O)N(C)C)c1 ; wanted: its IC50
Reply | 18.5

Ask | What do you get for COC(=O)CSc1nnc(-c2sc3ccccc3c2Cl)o1 ?
Reply | 2.49

Ask | Also CC(C)(C)c1ccc(/C=N/Nc2ccc(C(=O)O)cc2)cc1 ?
Reply | 40.5

Ask | One more molecule: COc1ccc(-c2cnc3c(NC=O)cc(-c4cccc(NS(C)(=O)=O)c4)cn23)cc1OC
Reply | 24.8

Ask | Same thing, different molecule: O=C(O)c1cccc(COc2ccccc2Cl)c1
Reply | 24.6

Ask | Can you check CNC(=O)NC(=O)COC(=O)CCCSc1nc2ccccc2s1 next?
Reply | 8.11

###

- TEST_SYSTEM: Endothelial PAS domain-containing protein 1 (Homo sapiens) (UniProt Q99814)
- ASSAY_METHOD_TEXT: HIF-2a and HIF-1a reporter inhibition panel, dose response, selectivity assay for HIF-2a inhibitor project, cell-based, luminescence (AID 651581)
- CONDITION: HIF-2a, run 2
QUANTITY_KIND: IC50 (µM)
Report only the number, with the unit µM understood.

Ask | Need IC50 of COC(=O)COc1ccc(-c2nccc(-c3ccccn3)n2)cc1 , thanks.
Reply | 1.11

Ask | Moving on to CCOc1ccc(OCc2cccc(C(=O)N/N=C/c3cccnc3)c2)cc1
Reply | 1.94

Ask | Another compound to check: CCOC(=O)CNC(=O)CSc1nnc(NC(=O)c2ccc(C)cc2)s1
Reply | 7.56

Ask | // repeat for NCCN1C(=O)S/C(=C\c2ccc3c(c2)OCO3)C1=O and report
Reply | 1.09

Ask | Query C(=NNc1ccc2ccccc2n1)c1ccccn1 next
Reply | 5.65

Ask | Note, next up: C=CS(=O)(=O)c1sc(Cl)c(N2CCOCC2)c1[N+](=O)[O-]
Reply | 8.45

Ask | And CCOC(=O)c1ccc(Oc2nc(NC(C)(C)C)nc(N(C)C)n2)cc1 ?
Reply | 11.9

Ask | Next record, please: Cc1nnnn1/C(=C\c1ccccc1)C(=O)OCC(=O)Nc1ccc(Cl)cc1F
Reply | 7.88

Ask | Now the same for C=C1C(=O)OC2CC3(C)OC3C3OC3C3=CC(OC3=O)C12 (stereo unspecified)
Reply | 10.3

###

- TEST_SYSTEM: Endothelial PAS domain-containing protein 1 (Homo sapiens) (UniProt Q99814)
- ASSAY_METHOD_TEXT: HIF-2a and HIF-1a reporter inhibition panel, dose response, selectivity assay for HIF-2a inhibitor project, cell-based, luminescence (AID 651581)
- CONDITION: HIF-2a, mean of runs
QUANTITY_KIND: pIC50
# reply with the number alone; pIC50 is -log10 of concentration in mol/L

Ask | Need pIC50, item N#Cc1ccccc1COc1ccc(/C=C/C(=O)O)cc1
Reply | 6.41

Ask | Try O=C(Nc1ccccc1)c1nnsc1S(=O)(=O)c1ccc(Cl)cc1 next.
Reply | 5.11

Ask | // next record CCOc1cc(/C=N/Nc2cccc(C(=O)O)c2)ccc1OC(=O)c1ccccc1
Reply | 5.37

Ask | Consider next the compound O=C(O)c1cccc(COc2ccccc2Cl)c1 in the same way.
Reply | 5.59

Ask | Do the same for Cc1nc2cc(-c3ccc(Cl)cc3)nn2c(C)c1CCC(=O)NCc1ccco1 please
Reply | 5.84

Ask | Could you do the same for Cc1nc2cc(-c3ccccc3)nn2c(C)c1CCC(=O)NCc1ccco1 , please?
Reply | 5.74

###

- TEST_SYSTEM: Hypoxia-inducible factor 1-alpha (Homo sapiens) (UniProt Q16665)
- Sequence (Q16665 whole entry, looked up): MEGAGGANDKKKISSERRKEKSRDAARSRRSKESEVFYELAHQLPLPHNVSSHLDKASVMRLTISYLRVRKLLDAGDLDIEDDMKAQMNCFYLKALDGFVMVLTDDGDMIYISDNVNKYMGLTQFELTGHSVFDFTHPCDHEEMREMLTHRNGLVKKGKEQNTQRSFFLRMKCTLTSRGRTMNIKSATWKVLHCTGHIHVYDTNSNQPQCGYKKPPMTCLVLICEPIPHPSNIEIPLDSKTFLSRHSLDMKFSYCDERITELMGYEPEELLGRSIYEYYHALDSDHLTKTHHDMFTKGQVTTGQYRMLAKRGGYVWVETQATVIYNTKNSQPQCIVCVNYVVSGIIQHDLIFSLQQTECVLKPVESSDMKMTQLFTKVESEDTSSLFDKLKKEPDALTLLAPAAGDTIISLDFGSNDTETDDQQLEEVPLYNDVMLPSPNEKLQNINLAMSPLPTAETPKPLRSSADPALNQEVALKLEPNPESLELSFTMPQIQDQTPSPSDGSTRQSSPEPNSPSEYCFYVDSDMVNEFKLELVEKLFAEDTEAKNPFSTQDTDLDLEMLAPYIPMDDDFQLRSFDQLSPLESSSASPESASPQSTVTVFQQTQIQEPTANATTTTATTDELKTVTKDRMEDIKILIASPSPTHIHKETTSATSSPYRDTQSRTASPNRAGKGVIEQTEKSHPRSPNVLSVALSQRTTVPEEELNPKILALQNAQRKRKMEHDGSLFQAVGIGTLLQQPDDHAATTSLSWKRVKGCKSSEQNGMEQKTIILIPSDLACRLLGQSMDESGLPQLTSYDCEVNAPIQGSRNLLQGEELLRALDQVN
- ASSAY_METHOD_TEXT: HIF-2a and HIF-1a reporter inhibition panel, dose response, selectivity assay for HIF-2a inhibitor project, cell-based, luminescence (AID 651581)
- CONDITION: HIF-1a, mean of runs
Calls of active or inactive are those of the source. How the calls were made is not given here.
Write down one outcome, taken from yes for active, no for inactive

Ask | Which outcome was assigned to COc1ccc(CNC(=O)CCc2c(C)nc3cc(-c4ccccc4OC)nn3c2C)cc1 in this test?
Reply | no

Ask | Next up: FC(F)(F)c1cnc(NNC(=S)Nc2ccccc2)c(Cl)c1
Reply | yes

Ask | Now this one: CC(=O)/C=C1/C(=O)Nc2ccccc21
Reply | no

Ask | Input CC(C)c1ccc(/C=N/Nc2ccc(C(=O)O)cc2)cc1
Reply | yes

Ask | What do you have for COC(=O)COc1ccc(-c2nccc(-c3ccccn3)n2)cc1 ?
Reply | no

Ask | Param item: CCOC(=O)c1cccc(NC(=O)/C=C/c2ccc3c(c2)OCO3)c1
Reply | no

###

- TEST_SYSTEM: Endothelial PAS domain-containing protein 1 (Homo sapiens) (UniProt Q99814)
- ASSAY_METHOD_TEXT: HIF-2a and HIF-1a reporter inhibition panel, dose response, selectivity assay for HIF-2a inhibitor project, cell-based, luminescence (AID 651581)
- CONDITION: HIF-2a PANC, mean of runs
Activity calls are given as the source filed them. How the calls were made is not given here.
Log the outcome using a class from active, inactive

Ask | # fetch the recorded call for Cc1nc2cc(-c3ccccc3)nn2c(C)c1CCC(=O)NC(C)c1ccc2c(c1)OCCO2 (stereo not drawn) here
Reply | active

Ask | Repeat with Nc1nc2ccc(S(=O)(=O)c3ccc4nc(N)sc4c3)cc2s1
Reply | inactive

Ask | CSc1ccc(/C=N/Nc2cccc(C(=O)O)c2)cc1 , same question.
Reply | inactive

Ask | Repeat for the following molecule: NNC(=O)COc1ccc(-c2nccc(-c3ccc(F)cc3)n2)cc1
Reply | active

Ask | Item: CCOC(=O)C1CCN(Cc2cc(=O)oc3c(C)c(C)ccc23)CC1
Reply | active

Ask | Try this molecule next: N#Cc1c(NC(=O)CSc2ncn[nH]2)sc2c1CCCCC2
Reply | active

Ask | Next molecule up: O=c1[nH]c2ccc(Br)cc2c(=O)o1
Reply | active

Ask | Thanks! And Cc1ccc(S(=O)(=O)Nc2cccc3cccnc23)cc1 ?
Reply | inactive

Ask | Also NCCN1C(=O)S/C(=C\c2ccc3c(c2)OCO3)C1=O , if possible.
Reply | inactive

Ask | Query CCN(CC)S(=O)(=O)c1ccc(NC(=O)c2cccnc2Cl)c(NC(=O)c2cccnc2Cl)c1 next
Reply | active

Ask | Do the same for O=C(CCCSc1nc2ccccc2s1)NC1=NCCS1 please
Reply | active

Ask | COc1ccccc1N1C(=O)C=C(Sc2nc(C)cc(C)n2)C1=O ?
Reply | inactive

Ask | Would you kindly repeat that for S=C(c1ccc(-c2ccccc2)cc1)N1CCOCC1 ?
Reply | active

Ask | Subsequent entry: CCOC(=O)C1CCN(C(=O)Nc2ccc3snnc3c2)CC1
Reply | inactive

Ask | Also check CN(C)c1ccc(Nc2nc(N)c3ccccc3n2)cc1
Reply | active

Ask | Queued: Cc1nc2cc(-c3ccccc3)nn2c(C)c1CCC(=O)N1CCC2(CC1)OCCO2
Reply | active

Ask | Entry to check: CCOC(=O)c1ccc(Oc2nc(NC(C)(C)C)nc(N(C)C)n2)cc1
Reply | inactive

Ask | Cool, now O=C(O)c1cccc(-c2nc3ccccc3[nH]2)c1
Reply | inactive

Ask | Can you check CN(C)S(=O)(=O)c1cccc(NC(=O)CSc2cccc3cccnc23)c1 next?
Reply | inactive

Ask | And then CC(=O)N(C(C)=O)c1ccc(Oc2ccc(Oc3ccc(N(C(C)=O)C(C)=O)cc3)cc2)cc1 , what is it?
Reply | active

Ask | Record: CCOC(=O)c1cccc(COC(=O)c2cccc(-c3nnc(-c4ccccc4)o3)c2)c1
Reply | inactive

Ask | Moving on to CC(C)(C)c1ccc(-c2noc(CCC(=O)NCC3CCCO3)n2)cc1 (stereo not drawn)
Reply | active

Ask | Another molecule: O=C(O)COc1ccc2oc3ccccc3c2c1
Reply | inactive
